Answer each item with its documented remaining at 0.5 h, 5 µM.
assay.info: Metabolic stability in rat liver microsomes assessed as compound remaining at 5 uM after 30 mins
Type: ADME, Microsome
conditions: read-out: Stability
Answers are plain numbers, in %.

# example entries with known answers
>  <smiles.record>
O=S(=O)(c1ccc(C(F)(F)F)cc1)c1nnn2c1nc(NCc1cccs1)c1sccc12

>  <measure.name>
remaining at 0.5 h, 5 µM

>  <readout.number>
99

$$$$
>  <smiles.record>
COc1ccc(S(=O)(=O)c2nnn3c2nc(NCc2cccs2)c2sccc23)cc1

>  <measure.name>
remaining at 0.5 h, 5 µM

>  <readout.number>
6

$$$$
>  <smiles.record>
CC(C)c1ccc(S(=O)(=O)c2nnn3c2nc(NCc2cccc4ccccc24)c2sccc23)cc1

>  <measure.name>
remaining at 0.5 h, 5 µM

>  <readout.number>
45

$$$$
>  <smiles.record>
COc1ccc(CNc2nc3c(S(=O)(=O)c4ccc(C(C)C)cc4)nnn3c3ccsc23)cc1

>  <measure.name>
remaining at 0.5 h, 5 µM

>  <readout.number>
7

$$$$
>  <smiles.record>
O=S(=O)(c1ccc(F)cc1)c1nnn2c1nc(NCc1cccs1)c1sccc12

>  <measure.name>
remaining at 0.5 h, 5 µM

>  <readout.number>
27

$$$$

// each molecule listed below needs its remaining at 0.5 h, 5 µM
1. O=S(=O)(c1ccc(Br)cc1)c1nnn2c1nc(NCc1cccs1)c1sccc12
2. O=S(=O)(c1ccc(OC(F)(F)F)cc1)c1nnn2c1nc(NCc1cccs1)c1sccc12
3. CC(F)(F)c1ccc(S(=O)(=O)c2nnn3c2nc(NCc2cccs2)c2sccc23)cc1

Reply |
[60, 95, 96]

Ref: ChEMBL document CHEMBL2163305
